# TESTED ON: UniProt P00690
# Sequence (P00690 16-511): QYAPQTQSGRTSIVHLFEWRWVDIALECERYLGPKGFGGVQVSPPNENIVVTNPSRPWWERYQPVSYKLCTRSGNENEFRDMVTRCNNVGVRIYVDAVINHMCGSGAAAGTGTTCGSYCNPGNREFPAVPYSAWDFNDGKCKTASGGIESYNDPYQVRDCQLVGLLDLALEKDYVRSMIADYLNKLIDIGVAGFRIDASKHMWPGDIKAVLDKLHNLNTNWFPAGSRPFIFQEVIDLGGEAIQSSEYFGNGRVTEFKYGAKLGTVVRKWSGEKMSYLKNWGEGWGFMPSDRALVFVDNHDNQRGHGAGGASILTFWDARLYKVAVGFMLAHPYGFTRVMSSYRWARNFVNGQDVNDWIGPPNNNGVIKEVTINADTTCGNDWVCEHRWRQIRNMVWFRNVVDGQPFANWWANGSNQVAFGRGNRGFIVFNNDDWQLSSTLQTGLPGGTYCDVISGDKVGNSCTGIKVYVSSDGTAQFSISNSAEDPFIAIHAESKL
IC50 listing for selected molecules.
RECORDED ENDPOINT: IC50 (µM)

Cc1ccc(NC(=S)Nc2ccccc2)c(C)c1
242
Fc1ccccc1NC(=S)Nc1ccccc1
406
S=C(Nc1ccccc1)NC(c1ccccn1)C(Cc1ccccc1)Cc1ccccc1 (stereo not shown)
263
S=C(NC(c1ccccn1)C(Cc1ccccc1)Cc1ccccc1)NC(c1ccccn1)C(Cc1ccccc1)Cc1ccccc1 (stereo not shown)
130

* * *

# PROCEDURE DETAILS: DPPH free radical scavenging
# EXPERIMENTAL CONDITIONS: concentration 125 μg/mL
// classify: if (DPPH % I (mean ± S.E.M) < 70%) true else false

Cc1ccc(NC(=S)Nc2ccccc2)c(C)c1
true
O=C1O[C@H]([C@@H](O)CO)C(O)=C1O [Ascorbic acid, reference compound]
true
S=C(NC(c1ccccn1)C(Cc1ccccc1)Cc1ccccc1)NC(c1ccccn1)C(Cc1ccccc1)Cc1ccccc1 (centres unmarked)
false
S=C(Nc1ccccc1)NC(c1ccccn1)C(Cc1ccccc1)Cc1ccccc1 (centres unmarked)
true

* * *

# TESTED ON: Butyrylcholinesterase (Homo sapiens)
# Sequence (P06276 29-602): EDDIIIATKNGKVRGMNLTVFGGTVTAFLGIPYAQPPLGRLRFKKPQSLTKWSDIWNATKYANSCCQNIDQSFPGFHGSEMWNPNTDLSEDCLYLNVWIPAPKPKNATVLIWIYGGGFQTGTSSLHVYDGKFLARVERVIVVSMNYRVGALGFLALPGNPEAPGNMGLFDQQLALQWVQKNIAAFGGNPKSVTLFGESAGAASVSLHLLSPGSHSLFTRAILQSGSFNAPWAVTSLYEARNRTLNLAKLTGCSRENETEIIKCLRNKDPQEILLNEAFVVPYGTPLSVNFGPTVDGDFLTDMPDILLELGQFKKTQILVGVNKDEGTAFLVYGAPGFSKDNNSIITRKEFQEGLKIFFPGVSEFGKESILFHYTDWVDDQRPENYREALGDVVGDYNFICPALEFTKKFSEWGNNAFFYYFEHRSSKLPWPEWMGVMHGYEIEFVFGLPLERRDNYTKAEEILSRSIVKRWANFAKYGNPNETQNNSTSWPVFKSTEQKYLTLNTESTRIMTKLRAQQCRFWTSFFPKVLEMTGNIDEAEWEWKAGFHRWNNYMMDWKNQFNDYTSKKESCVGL
# PROCEDURE DETAILS: Anticholinesterase assay
# Type: biochemical
# EXPERIMENTAL CONDITIONS: read-out: %BChE Inhibition (mean ± SEM)
Lab note: compare inhibition at 1000 µg/mL against 70%. Equal or greater, write y. Smaller, write n.

Fc1ccccc1NC(=S)Nc1ccccc1
n
COc1ccc2c3c1O[C@H]1C[C@@H](O)C=C[C@@]31CCN(C)C2 [Galantamine, reference compound]
y
S=C(NC(c1ccccn1)C(Cc1ccccc1)Cc1ccccc1)NC(c1ccccn1)C(Cc1ccccc1)Cc1ccccc1 (centres unmarked)
n
Cc1ccc(NC(=S)Nc2ccccc2)c(C)c1
y

* * *

# PROCEDURE DETAILS: ABTS free radical scavenging
# EXPERIMENTAL CONDITIONS: concentration 1000 μg/mL
Property: ABTS % I (mean ± S.E.M); scope: individual molecules
RECORDED ENDPOINT: ABTS % I (mean ± S.E.M) (%)

S=C(Nc1ccccc1)NC(c1ccccn1)C(Cc1ccccc1)Cc1ccccc1 (centres unmarked)
69.11
O=C1O[C@H]([C@@H](O)CO)C(O)=C1O [Ascorbic acid, reference compound]
88.17
Cc1ccc(NC(=S)Nc2ccccc2)c(C)c1
78.15
Fc1ccccc1NC(=S)Nc1ccccc1
75.04
S=C(NC(c1ccccn1)C(Cc1ccccc1)Cc1ccccc1)NC(c1ccccn1)C(Cc1ccccc1)Cc1ccccc1 (centres unmarked)
81.67
